Test: Cytotoxicity in non-infected control culture (FL cells)
Assay type: cell-based
Conditions: human, non-infected FL cell control culture, eight days
attribute_measured: MCC at 192 h (µg/mL)

substance_smiles | attribute_measured | numeric_readout
Nc1nc2c(ncn2[C@@H]2C[C@H](CO)[C@H](O)C2)c(=O)[nH]1 | MCC at 192 h | 3.13
Nc1nc2c(ncn2COCCO)c(=O)[nH]1 | MCC at 192 h | 400

###

Assay: Cytotoxicity in non-infected control culture (Vero cells)
Type: cell-based
Conditions: monkey; minimum concentration to cause a visible disruption of normal cell morphology; non-infected Vero cells; three days; read-out: Cytotoxicity

substance_smiles | MCC at 72 h, µg/mL
Nc1ccn([C@@H]2O[C@H](CO)[C@@H](O)[C@@H]2O)c(=O)n1 | 0.78

###

Assay: Cytotoxicity in non-infected control culture (Vero cells)
Assay type: cell-based
Conditions: monkey, vero cells
Description: Vero cells were infected with 100 TCID₅₀ (50% tissue-culture infected doses) of viruses and cultured with various concentrations of the compounds.
attribute_measured: MCC at 72 h (µg/mL)

substance_smiles | attribute_measured | numeric_readout
O=c1[nH]c(=O)n([C@H]2C[C@H](O)[C@@H](CO)O2)cc1Br | MCC at 72 h | 100
O=c1[nH]c(=O)n([C@H]2C[C@H](O)[C@@H](CO)O2)cc1I | MCC at 72 h | 200
Nc1ncnc2c1ncn2[C@@H]1O[C@H](CO)[C@@H](O)[C@@H]1O | MCC at 72 h | 100
Nc1nc2c(ncn2[C@@H]2C[C@H](CO)[C@H](O)C2)c(=O)[nH]1 | MCC at 72 h | 12.5
Nc1nc2c(ncn2COCCO)c(=O)[nH]1 | MCC at 72 h | 800

Values from patent EP0219838A2
